# Experimental System: T1, mouse IL-2Rβ (mouse) (UniProt P16297)
# T1 sequence (looked up): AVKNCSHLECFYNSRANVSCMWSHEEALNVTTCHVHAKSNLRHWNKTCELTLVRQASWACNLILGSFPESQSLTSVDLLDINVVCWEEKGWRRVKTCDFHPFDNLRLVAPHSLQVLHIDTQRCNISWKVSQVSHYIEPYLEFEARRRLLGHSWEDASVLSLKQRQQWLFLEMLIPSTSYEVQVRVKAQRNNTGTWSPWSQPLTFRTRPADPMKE
# Experimental Protocol: P.E. ELISA, coated protein
Assay Readout: P.E. binding ELISA OD (OD450 nm)

{"columns": ["Binder", "Uom", "P.E. binding ELISA OD"],
 "data": [
  ["FJ1427 P035MP02D08 (VHH) VHH: EVQLVESGGGLVQAGGSLRLSCVVSGDVFVRYTMAWFRQAPGKEREFVTSITDSGRTTEYVDSVKGRFTVSRDNAKNTVYLQMNNLKPEDTAVYYCAANTDYFRIRSLDANTWGQGTQVTVSS", "OD450 nm", 0.048],
  ["FJ1427_P035MP02C04 (VHH) VHH: QVQLVESGGGLVQPGGSLELSCAASGFTFSNYAMSWVRQAPGKGLEWVSSITGFGRGTDYADSVKGRFTISRDNDKNTLYLQMNSLKPEDTAVYYCARYSSSTYYPPTPARGRDYRGQGTQVTVSS", "OD450 nm", 0.047]
]}

Entry source: patent US20240409645A1
